Test system: Zymoseptoria tritici
Experiment: Test E: wheat leaf blotch, preventive spray on wheat seedlings
Details: 50 ppm (asterisk); wheat leaf blotch; 100 = 100% disease control, 0 = no control
Test E rating (% disease control) overview
Report only the number, with the unit % understood.

Sample answers from the record:
- OC(Cn1cncn1)(C1=NOC(c2ccc(Cl)cc2)C1)c1ccc(Cl)cc1 (single isomer, unassigned) [Compound 123]: 100
- CC1(c2ccc(Cl)cc2)CC(C(O)(Cn2cncn2)c2ccc(Cl)cc2)=NO1 (single isomer, unassigned) [Compound 213]: 0
- CC(C)(C)C(O)(Cn1cncn1)C1=NOC(c2ccc(Cl)cc2)C1 (single isomer, unassigned) [Compound 132]: 81
- CC(O)(Cn1cncn1)C1=NOC(c2ccc(Cl)cc2)C1 (single isomer, unassigned) [Compound 35]: 0
- OC(Cn1cncn1)(C1=NOC(c2ccc(Cl)cc2)C1)c1ccc(F)cc1F (single isomer, unassigned) [Compound 130]: 11
- CC(C)(C)C1CC(C(O)(Cn2cncn2)c2ccccc2)=NO1 (single isomer, unassigned) [Compound 125]: 0

Prompt line: Item under review: OC(Cn1cncn1)(C1=NOC(Cc2ccccc2)C1)c1ccc(Cl)cc1 (single isomer, unassigned) . Reported Test E rating (% disease control)?
Response line: 83

# credit: patent US20160242416A1
